binders and their reported Blocking IC50
Measurement Target: T1, human TGFβ3, mature dimeric form (human, UniProt P10600 301-412)
T1 sequence: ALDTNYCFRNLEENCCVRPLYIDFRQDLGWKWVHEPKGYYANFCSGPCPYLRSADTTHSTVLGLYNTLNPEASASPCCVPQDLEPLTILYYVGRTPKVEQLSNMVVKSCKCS
Method Summary: cell-based or functional assay
Quantity Name: Blocking IC50 (nM)

[
  {
    "Binder": "1D11 (antibody, V domains shown, also called pan-TGFβ antibody 1D11) VH: QVQLQQSGPELVRPGASVKLSCKASGYIFITYWMNWVKQRPGQGLEWIGQIFPASGSTNYNEMFEGKATLTVDTSSSTAYMQLSSLTSEDSAVYYCARGDGNYALDAMDYWGQGTSVTVSS VL: DIVLTQSPASLAVSLGQRATISCRASESVDSYGNSFMHWYQQKSGQPPKLLIYLASNLESGVPARFSGSGSRTDFTLTIDPVEADDAATYYCQQNNEDPLTFGAGTKLEIK",
    "Quantity Name": "Blocking IC50",
    "Comparison Sign": "=",
    "Test Result": 0.04
  },
  {
    "Binder": "6F12 (antibody, V domains shown, anti-TGFβ2; called rat and rabbit in different places; also called rat 6F12; r6F12) VH: QVQLKESGPGLVQPSQTLSLTCTVSGFSLTTYNVHWVRQPPGKGLEWMGLIWNTGGTRYNSALKSRLSISKDTSKSQVFLRMNSLQTEDTATYYCARDPVPNKWHFDFWGPGTMVTVSS VL: DIQMTQSPASLSASLGETVTIECLASEDIYSNLAWYQQKPGKSPQLLIYDARSLQDGVPSRFSGSESGPQYSLEINSLQSEDAVTYFCQQHHAYPFTFGSGTKLEIK",
    "Quantity Name": "Blocking IC50",
    "Comparison Sign": ">",
    "Test Result": 500
  },
  {
    "Binder": "2A10 (antibody, V domains shown, anti-TGFβ3; also called rat 2A10; r2A10) VH: EVQLVESGGGLVQPKGSLKLSCAASGFDFNSYGMSWVRQAPGKGLDLVADIVSKTYNYTTYYSDSVKDRFTISRDDSQSMVYLQMDNLKTEDTALYYCTVAPGGSFDYWGQGVMVTVSS VL: DIVLTQSPALAVSLGQRATISCRASQSVSISRFNLMHWYQHKPGQQPKLLIYRASNLASGIPARFSGSGSGTDFTLTINPVQADDLATYYCQHSRESPWTFGGGTKLEIK",
    "Quantity Name": "Blocking IC50",
    "Comparison Sign": "=",
    "Test Result": 0.02
  },
  {
    "Binder": "4A11 (antibody, V domains shown, anti-TGFβ2/3, recombinant rabbit monoclonal; some paragraphs print the H/L pair as 32/33; also called Rb1.4A11; Rbt 4A11) VH: QSLEESGGRLVTPGTPLTLTCTVSGFSLSSYTVNWVRQAPGKGLEWIGYISYGGSAYYASWANGRFTISKTSATVDLKITSPTTEDTATYFCARHMQVGGAPTGSMAAFDPWGPGTLVTVSS VL: AAVLTQTPSPVSAAVGGTVSISCQSSQSVYNNNYLSWFQQKPGQPPKLLIYGASTLTSGVPSRFKGSGSGTQFTLTISDVQCDDAATYYCAGGYSGSSDKYAFGGGTEVVVKG",
    "Quantity Name": "Blocking IC50",
    "Comparison Sign": "=",
    "Test Result": 0.03
  },
  {
    "Binder": "21D1 (antibody, V domains shown) VH: QVQLVQSGAEVKKPGASVKVSCKASGYTFTDYNIHWVRQAPGQGLEWMGYIYPYDGETGYNQKFKSRVTMTTDTSTSTAYMELRSLRSDDTAVYYCARGYRWFAYWGQGTLVTVSS VL: DIQMTQSPSSLSASVGDRVTITCRASSSVPYMHWFQQKPGKAPKSLIYATSNPAYGVPSRFSGSGSGTDFTLTISSLQPEDFATYYCQQWDLNPPAFGQGTKLEIKR",
    "Quantity Name": "Blocking IC50",
    "Comparison Sign": ">",
    "Test Result": 200
  }
]
